The values you see were collected from PubChem BioAssay (NCI).

tested on: UO-31 renal; assay: NCI tumour cell line growth inhibition, 48 h
Each entry below carries its reported TGI.

Some compounds with recorded TGI:
| compound | TGI |
| --- | --- |
| COc1ccc(C2OC2C(=O)C23CC4CC(CC(C4)C2)C3)cc1 (configuration not stated) | > 100 µM |
| N#CN1CCC2CC(=O)CCC2C1 (configuration not stated) | > 100 µM |
| CC(=O)OCCn1c(Cc2ccc(Cl)cc2)nn(C(C)=O)c1=O | > 100 µM |
| C/C(=C\COP(=O)(O)CP(=O)(O)O)CC/C=C(\C)CNc1ccccc1 | > 100 µM |
| Nc1nc(-c2ccccn2)c(-c2ccc3ncccc3n2)s1 | > 25 µM |
| NCCCc1nonc1C(=O)O | > 100 µM |

# input Name the recorded TGI of the compound listed here: `Cc1cc2c(=O)cc(-c3ccncc3)oc2c(C(N)=O)c1C`
# output > 100 µM

# input Name the recorded TGI of the compound listed here: `NS(=O)(=O)c1ccc(NCc2cccc3c(=O)c4ccc(Cl)cc4oc23)cc1`
# output > 93.2 µM

# input Name the recorded TGI of the compound listed here: `CCc1c(N=[N+]=[N-])c2ccccc2oc1=O`
# output > 100 µM

# input Name the recorded TGI of the compound listed here: `O=C1/C(=C/c2ccc(Cl)cc2)NC(=S)N1CN1CCCCC1`
# output > 100 µM

# input Name the recorded TGI of the compound listed here: `COc1ccc(Cc2c3cc(OC)c(OC)cc3cc[n+]2C)cc1`
# output > 51.4 µM

# input Name the recorded TGI of the compound listed here: `COCc1nc(C#N)c(N)o1`
# output > 10 µM
